Source: patent US20180036405A1

- MEASUREMENT TARGET: T1, human monomeric EGFR (EGFR.mmh) (human, UniProt P00533 25-647)
- T1 construct: Soluble monomeric EGFR construct
- EXPERIMENT SUMMARY: SPR 37C, mAb captured by anti-human Fc, EGFR.mmh analyte
- Experimental: Different concentrations of human monomeric (EGFR.mmh; SEQ ID NO:386) and dimeric (EGFR.mFc; SEQ ID NO:387) proteins were injected over the anti-EGFR monoclonal antibody captured surface at a flow rate of 50 μI/min. Antibody-antigen association was monitored for 4-5 minutes while dissociation of antigen from the captured monoclonal antibody surface was monitored for 10 min. […]
MEASURED QUANTITY: t1/2 (min)
Quick reminder: number only, in min, skip the unit.

Some entries whose results are on file:
Exercise: Data request, read-out t1/2, for H1H171P (antibody, human IgG1, V domains shown, Human IgG1 Fc (H1H)) VH: QVQLVESGGGVVQPGRSLRLSCAASGFTFSIYGMNWVRQGPGKGLDWVAVISDDGSNKDYVDSVRGRFTISRDNSKNTLYLQMNSLSAEDTAVYYCAKDRITGTHYYGMDVWGQGTTVTVSS VL: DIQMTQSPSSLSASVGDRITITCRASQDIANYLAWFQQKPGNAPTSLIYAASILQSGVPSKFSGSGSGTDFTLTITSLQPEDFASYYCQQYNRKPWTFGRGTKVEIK
Key: 10

Exercise: Same lookup for H1H163P (antibody, human IgG1, V domains shown, Human IgG1 Fc (H1H)) VH: QVQLVESGGGVVQPGRSLRLSCAASGFTFSNYGMHWVRQAPGKGLEWVTLIEHDGSNKNYVDSVKGRFTISRDNSKNTLYLQMNSLRVEDTAVYYCAKDRITGTPWYGMDVWGQGTTVTVSS VL: DIQMTQSPSSLSASVGDRVTITCRASQDIADYLAWFQQKPGKAPKSLIFAASSLESWVPLKFSGSGSGTDFTLTISSLQPEDFATYYCQQYNRFPITFGQGTRLEIK , please.
Key: 27

Exercise: Same lookup for H1H116N (antibody, human IgG1, V domains shown, Tested in human IgG1 Fc format (H1H); also called H1M116N) VH: QVQLQESGPGLVKPSQTLSLTCTVSGGSVSSGDYYWSWIRQHPGKGLDWIGHIYYSGSTYYNPSLKSRVTISLDTSKNQFSLKLNSVTAADTAVYYCARTAITGTMDYWGQGTLVTVSS VL: EIVMTQSPATLSVSAGERATLSCRASQSVSSNLAWFQQKPGQAPRLLIYDASTRATGIPARFSGSGSGTEFTLIISSLQSEDFALYYCQQYNSWWTFGQGTKVEIK , please.
Key: 4

Exercise: Same lookup for H1H159P (antibody, human IgG1, V domains shown, Human IgG1 Fc (H1H)) VH: EVQLVESGGGLVQPGGSLRLSCAASRFTFTNYWMSWVRQAPGKGLEWVAKIKQDGSEKYYLDSVKDRFTISRDNAKNSLYLQMNSLRAEDTAVYYCASSSSWYDYYYGMDVWGHGTTVTVSS VL: EIVLTQSPDFQSVTPKEKVTITCRASQSIGTNLHWYQQRPDQSPKLLIKFASQSFSGVPSRFSGSGSGTDFTLTINSLEAEDAATYYCHQTNFLPHTFGGGTKVEIKR , please.
Key: 36

Exercise: Same lookup for H1H102N (antibody, human IgG1, V domains shown, Tested in human IgG1 Fc format (H1H); also called H1M102N) VH: QVQLQESGPGLVQPSQTLSLTCTVSGGSVSSGDYYWSWIRQHPGKGLEWIGHIYYSGITYYNPSLESRVTITLDTSKNQFSLNLRSVTAADTAVHYCARTAIIGTMDNWGRGTLVTVSS VL: EIVMTQSPATLSVSPGERATLSCRASQSVSSNLAWYQQKPGQAPRLLIYDASTRATGFPARFSGSGSGTEFTLTISSLQSEDFAVYYCQQYNTWWTFGQGTKVEIK , please.
Key: 12

Exercise: Same lookup for H1H142P (antibody, human IgG1, V domains shown, Human IgG1 Fc (H1H)) VH: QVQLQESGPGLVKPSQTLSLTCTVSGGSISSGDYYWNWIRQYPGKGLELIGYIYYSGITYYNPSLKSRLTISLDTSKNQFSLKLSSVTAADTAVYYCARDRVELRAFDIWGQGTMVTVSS VL: DIQMTQSPSSLSASIGDRITISCQASQDINNYLNWYQQKPGKAPKLLIYDASNLETGIPSRFSGSGSGTDFTFTISGLQPEDIATYYCQHYDSLPLTFGQGTRLEIK , please.
Key: 17

Others:
Exercise: Data request, read-out t1/2, for H1H155P (antibody, human IgG1, V domains shown, Human IgG1 Fc (H1H)) VH: QVQLVESGGGVVQPGRSLRLSCAASGFTFSIYGMHWVRQAPGKGLEWVTVISDDGSKKYYVDSVKGRFTLSRDNSKNTLYLQMNSLRAEDTAVYYCARDRITGTNWYGMDVWGQGTTVTVSS VL: DIQMTQSPSSLSASVGDRVTITCRASQDISNYLAWFQQKPGKAPKSLIFAASSLQSGGPSKFSGSGSGTDFTLTISSLQPEDFATYYCQQYNRYPFTFGPGTKVDIK
Key: 68
